The entries below come with measured Selective window (MFIA431/Hepatocytes) values attached.
- target-under-test: T1, wild-type EGFR protein on the surfaces of A431 tumor cells and normal human primary hepatocytes (human, UniProt P00533 25-1210)
- T1 construct: whole, on cells; Same protein on two cell types; also called human epidermal growth factor receptor; her-1
- assay-protocol: FACS, MFI on A431 cells over MFI on normal primary hepatocytes
Answer as a quantity: numeral, then unit.

- binder: "Humanized antibody h63A10A7-18 (antibody, human IgG1, V domains shown, Human IgG1 constant region, human kappa constant region) VH: QVQLVQSGAEVKKPGASVKVSCKASGYTFISFTMHWVKQRPGQGLEWIGYINPNSGYTKYNQKFKDKATLTADQSTSTAYMELSSLRSEDTAVYYCTRGGGRGFAYWGQGTLVTVSS VL: DILMTQSPSSLSASVGDRVTITCHASQDINSNIGWLQQKPGKSFKALIYHGTNLEDGVPSRFSGSGSGADYTLTISSLQPEDFATYYCVQYAQFPFTFGQGTKLEIK"
  Selective window (MFIA431/Hepatocytes): "16.5 ratio"

[ask] Given the binder Humanized antibody h63A10A7-25 (antibody, human IgG1, V domains shown, Human IgG1 constant region, human kappa constant region) VH: QVQLVQSGAEVKKPGASVKVSCKASGYTFISFTMHWVKQRPGQGLEWIGYINPNSGYTKYNQKFKDKATLTRDTSTSTVYMELSSLRSEDTAVYYCTRGGGRGFAYWGQGTLVTVSS VL: DILMTQSPSSLSASVGDRVTITCHASQDINSNIGWYQQKPGKSFKALIYHGTNLEDGVPSRFSGSGSGADYTLTISSLQPEDFATYYCVQYAQFPFTFGQGTKLEIK , write its reported Selective window (MFIA431/Hepatocytes).
[reply] 17 ratio

[ask] Given the binder Humanized antibody h63A10A7-38 (antibody, human IgG1, V domains shown, Human IgG1 constant region, human kappa constant region) VH: QVQLVQSGAEVKKPGASVKVSCKASGYTFISFTMHWVRQAPGQGLEWIGYINPNSGYTKYNQKFKDKATLTRDTSTSTVYMELSSLRSEDTAVYYCTRGGGRGFAYWGQGTLVTVSS VL: DIQMTQSPSSLSASVGDRVTITCHASQDINSNIGWLQQKPGKSFKALIYHGTNLEDGVPSRFSGSGSGADYTLTISSLQPEDFATYYCVQYAQFPFTFGQGTKLEIK , write its reported Selective window (MFIA431/Hepatocytes).
[reply] 4.2 ratio

[ask] Given the binder Humanized antibody h63A10A7-17 (antibody, human IgG1, V domains shown, Human IgG1 constant region, human kappa constant region) VH: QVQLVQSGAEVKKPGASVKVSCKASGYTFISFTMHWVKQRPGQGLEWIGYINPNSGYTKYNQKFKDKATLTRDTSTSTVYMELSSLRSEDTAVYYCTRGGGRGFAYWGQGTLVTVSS VL: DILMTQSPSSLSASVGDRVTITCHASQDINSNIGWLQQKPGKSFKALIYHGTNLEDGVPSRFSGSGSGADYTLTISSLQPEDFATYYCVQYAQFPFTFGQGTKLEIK , write its reported Selective window (MFIA431/Hepatocytes).
[reply] 15.6 ratio

[ask] Given the binder Humanized antibody h63A10A7-22 (antibody, human IgG1, V domains shown, Human IgG1 constant region, human kappa constant region) VH: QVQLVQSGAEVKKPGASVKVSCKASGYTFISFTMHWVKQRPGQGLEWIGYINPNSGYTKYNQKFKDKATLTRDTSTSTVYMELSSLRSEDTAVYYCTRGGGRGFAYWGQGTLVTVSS VL: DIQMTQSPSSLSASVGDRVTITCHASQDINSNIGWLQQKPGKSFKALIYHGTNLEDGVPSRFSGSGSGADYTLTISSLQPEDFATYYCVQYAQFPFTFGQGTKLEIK , write its reported Selective window (MFIA431/Hepatocytes).
[reply] 15.8 ratio
